Assay Text: Primary qHTS for inhibitors of nuclear receptor binding SET domain protein 2 (NSD2) in an RCH-ACV wild type WT cells (2C) (AID 1645877); note: nearly all actives have a fitted effect of over 70% in size
Test Settings: RCH-ACV (leukaemia line) NSD2 WT (2C) viability, CellTiter-Glo, 72 h; series mostly up to 44.9 µM
Description: Assay Provider: Jonathan D. Licht, MD University of Florida College of Medicine, Gainesville, FL Mutations in epigenetic regulators are common in relapsed pediatric acute lymphoblastic leukemia (ALL). Here, we uncovered the mechanism underlying the relapse of ALL driven by an activating mutation of the NSD2 histone methyltransferase (p.E1099K). […] Correction of this mutation restored glucocorticoid sensitivity. […]
Results filed as inconclusive are left out. Activity calls are given as the source filed them. Calls come from the whole dose curve; as a rule, active = well fitted inhibition curve with a large enough effect; inconclusive = small, poorly fitted or top-dose-only effect; inactive = no such curve, though single readings can be large or run the other way. Where a SMILES comes first, the peptide text is derived from it. [ ]: non-standard residue; d: D form. Dip = N[C@H](C(=O)O)C(c1ccccc1)c1ccccc1
The reply should name one outcome from class 1 for active, class 0 for inactive

Compound	Category
C[C@]1(C(=O)N(CCCC(=O)O)Cc2cccc(Cl)c2)CCN1C(=O)c1csc2ccccc12	class 0
Cc1noc(C)c1-c1ccc(-c2cc(C(N)=O)c(NC(N)=O)s2)c(O[C@H]2CCNC2)c1	class 1
CC(/C=C/[C@@H]1C[C@]1(C)c1ccc2c(c1)C(C)(C)CCC2(C)C)=C\C(=O)O	class 0

In: Please let me know the test result on file for C/C(=C\c1csc(C)n1)[C@@H]1C[C@@H]2O[C@]2(C)CCC[C@H](C)[C@H](O)[C@@H](C)C(=O)C(C)(C)[C@@H](O)CC(=O)N1 .
Out: class 1

In: Please let me know the test result on file for NCCCC[C@H](NC(=O)[C@@H](NC(=O)[C@H](Cc1c[nH]c2ccccc12)NC(=O)[C@H](CCCCN)NC(=O)[C@H](CCCCN)NC(=O)[C@H](Cc1c[nH]c2ccccc12)NC(=O)[C@H](Cc1c[nH]c2ccccc12)NC(=O)[C@H](CCCCN)NC(=O)[C@@H](N)CCCCN)C(c1ccccc1)c1ccccc1)C(N)=O (H-KKWWKKW[Dip]K-NH2) .
Out: class 1

In: Please let me know the test result on file for CC1=C2C[C@H]3[C@@H](CC[C@@H]4C[C@H](NS(C)(=O)=O)CC[C@@]43C)[C@@H]2CC[C@@]2(C1)O[C@@H]1C[C@H](C)CN[C@H]1[C@H]2C .
Out: class 1
